System: 653999-131-R-J2-PDC complex spheroids, growth % test/control;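 also: spheroids exposed to agents for seven days; 100% = DMSO vehicle control viability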
protocolText: Anticancer human tumor 653999-131-R-J2-PDC patient-derived lung adenocarcinoma cell line growth inhibition [AhR]
conditions: second compound 10 µM; first compound 0.0316 µM; hits give low values
reportedProperty: viability, T/C (%)
Give the quantity in %, number only.

compound: CC1(C)CCC(CN2CCN(c3ccc(C(=O)NS(=O)(=O)c4ccc(NCC5CCOCC5)c([N+](=O)[O-])c4)c(Oc4cnc5[nH]ccc5c4)c3)CC2)=C(c2ccc(Cl)cc2)C1 + Cc1cncc(-c2nc(NCCc3c[nH]c4ccccc34)c3ncn(C(C)C)c3n2)c1
experimentalTarget: 653999-131-R-J2-PDC complex spheroids, growth % test/control;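 also: spheroids exposed to agents for seven days; 100% = DMSO vehicle control viability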
viability, T/C, %: 59.4

// recorded viability, T/C for CC1COCCN1c1cc(-c2ccnn2C)c2ccnc(-c3ccn[nH]3)c2n1 (stereo not drawn) + Cc1ccccc1N=Nc1ccc(NC(=O)c2ccnn2C)c(C)c1 : 76.3

// COc1cc(C2c3cc4c(cc3C(OC3OC5COC(C)OC5C(O)C3O)C3COC(=O)C23)OCO4)cc(OC)c1O (stereo not drawn) + CC(CO)NC(=O)c1cc(-c2ccc(Cl)cc2)nn(-c2cnn(C)c2)c1=O : viability, T/C value = 83.2

Each recorded value in this set is attributed to PubChem BioAssay AID1919000.
